Reported IC50 values for a set of compounds
Biological target: UniProtKB Q13547
Experiment: HDAC 1 inhibition assay with about 3-hour enzyme/compound preincubation (fluorophore/quencher peptide substrate)
Format: biochemical
Conditions: 3-hour preincubation of enzyme and compound at room temperature; read-out: HDAC 1 inhibitory activity (IC50 [μM]) (3-hour preincubation)
VALUE_TYPE: IC50 (µM)

INSERT INTO assay_data (compound, value_type, unit, experimental_value) VALUES
  ('CN1CCc2nc(C3(c4ccc(C(=O)Nc5cc(-c6ccc(F)cc6)ccc5N)cc4)CC3)sc2C1 [Example 56]', 'IC50', 'µM', 0.00325),
  ('Cc1nc(C2(c3ccc(C(=O)Nc4cc(-c5ccc(F)cc5)ccc4N)cc3)CCOCC2)sc1C(C)O (centres unmarked) [Example 61]', 'IC50', 'µM', 0.00209),
  ('CCOc1csc(C2(c3ccc(C(=O)Nc4cc(-c5cccs5)ccc4N)cc3)CCOCC2)n1 [Example 37]', 'IC50', 'µM', 0.00388),
  ('CN1CCN(c2ccc(-c3csc(C4(c5ccc(C(=O)Nc6ccccc6N)cc5)CCOCC4)n3)cc2)CC1 [Example 47]', 'IC50', 'µM', 0.00576),
  ('Nc1ccccc1NC(=O)c1ccc(C2(c3nc(-c4cccnc4)cs3)CCCC2)cc1 [Example 6]', 'IC50', 'µM', 0.012),
  ('Cc1nc2ccccn2c1-c1csc(C2(c3ccc(C(=O)Nc4ccccc4N)cc3)CC2)n1 [Example 1]', 'IC50', 'µM', 0.0239),
  ('Nc1ccc(-c2ccc(F)cc2)cc1NC(=O)c1ccc(C2(c3nc4c(s3)COCC4)CC2)cc1 [Example 58]', 'IC50', 'µM', 0.0208),
  ('CC(=O)c1sc(C2(c3ccc(C(=O)Nc4ccccc4N)cc3)CC2)nc1C [Example 3]', 'IC50', 'µM', 0.065),
  ('CN1CCc2nc(C3(c4ccc(C(=O)Nc5cc(-c6cccs6)ccc5N)cc4)CCOCC3)sc2C1 [Example 21]', 'IC50', 'µM', 0.006),
  ('Nc1ccc(-c2ccc(F)cc2)cc1NC(=O)c1ccc(C2(c3nccs3)CC2)cc1 [Example 48]', 'IC50', 'µM', 0.00294),
  ('Nc1ccccc1NC(=O)c1ccc(C2(c3nc(-c4cnccn4)cs3)CCOCC2)cc1 [Example 41]', 'IC50', 'µM', 0.00702),
  ('O=C(NO)c1ccc(C2(c3nc(-c4cccnc4)cs3)CCOCC2)cc1 [Example 42]', 'IC50', 'µM', 0.0351),
  ('CN1CCN(c2ccc(-c3csc(C4(c5ccc(C(=O)NO)cc5)CCOCC4)n3)cn2)CC1 [Example 44]', 'IC50', 'µM', 0.0071),
  ('CC(=O)N1CCc2nc(C3(c4ccc(C(=O)Nc5cc(-c6cccs6)ccc5N)cc4)CCOCC3)sc2C1 [Example 28]', 'IC50', 'µM', 0.0026),
  ('Cc1ccc(-c2ccc(N)c(NC(=O)c3ccc(C4(c5nccs5)CCOCC4)cc3)c2)s1 [Example 46]', 'IC50', 'µM', 0.00749),
  ('Nc1ccc(-c2ccc(Cl)s2)cc1NC(=O)c1ccc(C2(c3ccccn3)CCOCC2)cc1 [Example 60]', 'IC50', 'µM', 0.00616),
  ('Nc1ccc(-c2ccc(F)cc2)cc1NC(=O)c1ccc(C2(c3ccccn3)CCOCC2)cc1 [Example 59]', 'IC50', 'µM', 0.00231),
  ('Nc1ccc(-c2cccs2)cc1NC(=O)c1ccc(C2(c3nccs3)CC2)cc1 [Example 50]', 'IC50', 'µM', 0.00262),
  ('Nc1ccccc1NC(=O)c1ccc(C2(c3nc(-c4ccc(N5CCCC5)nc4)cs3)CCOCC2)cc1 [Example 20]', 'IC50', 'µM', 0.019),
  ('Nc1ccc(-c2cccs2)cc1NC(=O)c1ccc(C2(c3nnn[nH]3)CCOCC2)cc1 [Example 38]', 'IC50', 'µM', 0.00311),
  ('CN1CCN(c2ccc(-c3csc(C4(c5ccc(C(=O)Nc6ccccc6N)cc5)CCOCC4)n3)cn2)CC1 [Example 25]', 'IC50', 'µM', 0.006),
  ('Nc1ccc(-c2ccc(F)cc2)cc1NC(=O)c1ccc(C2(c3nccs3)CCOCC2)cc1 [Example 36]', 'IC50', 'µM', 0.0029),
  ('Nc1ccc(-c2ccc(F)cc2)cc1NC(=O)c1ccc(C2(c3nc(-c4cnccn4)cs3)CCOCC2)cc1 [Example 54]', 'IC50', 'µM', 0.00625),
  ('Nc1ccc(-c2cccs2)cc1NC(=O)c1ccc(C2(c3ncc(-c4cccnc4)s3)CCOCC2)cc1 [Example 51]', 'IC50', 'µM', 0.0039),
  ('Nc1ccccc1NC(=O)c1ccc(C2(c3nc4c(s3)COCC4)CCOCC2)cc1 [Example 26]', 'IC50', 'µM', 0.017),
  ('Nc1ccccc1NC(=O)c1ccc(C2(c3nc(-c4ccc(N5CCN(C6CC6)CC5)nc4)cs3)CCOCC2)cc1 [Example 34]', 'IC50', 'µM', 0.0066),
  ('CC(C)[C@H](N)C(=O)N1CCc2nc(C3(c4ccc(C(=O)Nc5ccccc5N)cc4)CC3)sc2C1 [Example 17]', 'IC50', 'µM', 0.0982),
  ('Nc1ccc(F)cc1NC(=O)c1ccc(C2(c3nc(-c4cccnc4)cs3)CCOCC2)cc1 [Example 23]', 'IC50', 'µM', 0.032),
  ('CC(C)NC(=O)c1csc(C2(c3ccc(C(=O)Nc4ccccc4N)cc3)CC2)n1 [Example 10]', 'IC50', 'µM', 0.279),
  ('Nc1ccccc1NC(=O)c1ccc(C2(c3nc(-c4cccnc4)cs3)CCOCC2)cc1 [Example 8]', 'IC50', 'µM', 0.037),
  ('Nc1ccc(F)cc1NC(=O)c1ccc(C2(c3nc(-c4cccnc4)cs3)CC2)cc1 [Example 19]', 'IC50', 'µM', 0.0518),
  ('CN1CCc2nc(C3(c4ccc(C(=O)Nc5cc(F)ccc5N)cc4)CCOCC3)sc2C1 [Example 30]', 'IC50', 'µM', 0.067);

---

Biological target: HDAC 1 (Homo sapiens)
Sequence (Q13547 whole entry, species assumed): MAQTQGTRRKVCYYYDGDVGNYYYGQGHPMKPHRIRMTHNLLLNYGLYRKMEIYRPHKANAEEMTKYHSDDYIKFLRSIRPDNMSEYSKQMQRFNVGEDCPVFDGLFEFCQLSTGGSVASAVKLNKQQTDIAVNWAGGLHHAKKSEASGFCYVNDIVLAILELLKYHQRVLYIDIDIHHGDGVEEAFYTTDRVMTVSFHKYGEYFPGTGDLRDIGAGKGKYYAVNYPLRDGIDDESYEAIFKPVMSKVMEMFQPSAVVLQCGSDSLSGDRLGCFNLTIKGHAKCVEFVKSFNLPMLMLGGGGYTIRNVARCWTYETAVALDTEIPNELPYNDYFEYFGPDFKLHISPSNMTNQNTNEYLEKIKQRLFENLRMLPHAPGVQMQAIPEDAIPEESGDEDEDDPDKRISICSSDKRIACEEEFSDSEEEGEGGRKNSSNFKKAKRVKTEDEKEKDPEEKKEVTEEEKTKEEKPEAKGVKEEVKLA
Test: HDAC 1 inhibition assay with about 3-hour enzyme/compound preincubation (fluorophore/quencher peptide substrate)
Format: biochemical
Settings: 3-hour preincubation of enzyme and compound at room temperature; read-out: HDAC 1 inhibitory activity (IC50 [μM]) (3-hour preincubation)
VALUE_TYPE: IC50

INSERT INTO results (chem_smiles, experimental_value) VALUES
  ('O=C(NO)c1ccc(C2(c3nc(-c4cnccn4)cs3)CCOCC2)cc1', '0.0979 µM'),
  ('Cc1nc2ccccn2c1-c1csc(C2(c3ccc(C(=O)Nc4ccccc4N)cc3)CCOCC2)n1', '0.003 µM'),
  ('Cc1nc2ccccn2c1-c1csc(C2(c3ccc(C(=O)NO)cc3)CC2)n1', '0.024 µM'),
  ('Nc1ccccc1NC(=O)c1ccc(C2(c3nc4c(s3)CCCC4)CC2)cc1', '0.069 µM'),
  ('Nc1ccccc1NC(=O)c1ccc(C2(c3nc(-c4ccc(Cl)nc4)cs3)CCOCC2)cc1', '0.0139 µM'),
  ('CN1CCc2nc(C3(c4ccc(C(=O)Nc5ccccc5N)cc4)CCOCC3)sc2C1', '0.032 µM'),
  ('Nc1ccccc1NC(=O)c1ccc(C2(c3nccs3)CCOCC2)cc1', '0.119 µM'),
  ('CCOc1csc(C2(c3ccc(C(=O)Nc4cc(-c5ccc(F)cc5)ccc4N)cc3)CCOCC2)n1', '0.00639 µM');

---

Target: UniProtKB Q13547
Test: HDAC 1 inhibition assay with about 3-hour enzyme/compound preincubation (fluorophore/quencher peptide substrate)
Type: biochemical
Conditions: 3-hour preincubation of enzyme and compound at room temperature; read-out: HDAC 1 inhibitory activity (IC50 [μM]) (3-hour preincubation)
Criterion: IC50 strictly under 0.02 µM. Met: satisfied. Not met: not satisfied.

INSERT INTO measurements (chem_smiles, label) VALUES
  ('Nc1ccc(-c2ccc(Cl)s2)cc1NC(=O)c1ccc(C2(c3nccs3)CCOCC2)cc1', 'satisfied'),
  ('Nc1ccc(F)cc1NC(=O)c1ccc(C2(c3nc(-c4cnccn4)cs3)CCOCC2)cc1', 'satisfied'),
  ('CCOC(=O)N1CCc2nc(C3(c4ccc(C(=O)Nc5ccccc5N)cc4)CC3)sc2C1', 'satisfied'),
  ('Cc1nc(C2(c3ccc(C(=O)Nc4ccccc4N)cc3)CC2)sc1C(=O)N(C)C', 'not satisfied'),
  ('COCCOCc1csc(C2(c3ccc(C(=O)Nc4cc(-c5cccs5)ccc4N)cc3)CCOCC2)n1', 'satisfied'),
  ('Nc1ccccc1NC(=O)c1ccc(C2(c3nc(-c4cnccn4)cs3)CC2)cc1', 'not satisfied'),
  ('Nc1ccc(-c2cccs2)cc1NC(=O)c1ccc(C2(c3ccccn3)CCOCC2)cc1', 'satisfied'),
  ('Nc1ccc(-c2ccc(F)cc2)cc1NC(=O)c1ccc(C2(c3nnn[nH]3)CCOCC2)cc1', 'satisfied');
